test system: methicillin resistant Staphylococcus aureus (MRSA) biofilm; details: approximate peptide concentration […] (around 3 μg/ml); compared to untreated samples
Ends that are not written are not given here.
# % Biofilm inhibition annotations

- Substance: "HH2-K8: single substituted HH2 peptide (VQLRIRVKVIRA-NH2)"
  % Biofilm inhibition [%]: 73
- Substance: "1018-A10: single substituted 1018 peptide (VRLIVAVRIARR-NH2) [Peptide 1018-A10]"
  % Biofilm inhibition [%]: 54
- Substance: "1002-W3: single substituted 1002 peptide (VQWWLIVWRIRK-NH2) [Peptide 1002-W3]"
  % Biofilm inhibition [%]: 68
- Substance: "1018-W1: single substituted 1018 peptide (WRLIVAVRIWRR-NH2) [Peptide 1018-W1]"
  % Biofilm inhibition [%]: 68
- Substance: "1002-Q11: single substituted 1002 peptide (VQRWLIVWRIQK-NH2) [Peptide 1002-Q11]"
  % Biofilm inhibition [%]: 67
- Substance: "1002-K11: single substituted 1002 peptide (VQRWLIVWRIKK-NH2) [Peptide 1002-K11]"
  % Biofilm inhibition [%]: 74
- Substance: "1018-W5: single substituted 1018 peptide (VRLIWAVRIWRR-NH2) [Peptide 1018-W5]"
  % Biofilm inhibition [%]: 55
- Substance: "1002-G9: single substituted 1002 peptide (VQRWLIVWGIRK-NH2) [Peptide 1002-G9]"
  % Biofilm inhibition [%]: 44
- Substance: "1018-G10: single substituted 1018 peptide (VRLIVAVRIGRR-NH2) [Peptide 1018-G10]"
  % Biofilm inhibition [%]: 55
- Substance: "HH2-W6: single substituted HH2 peptide (VQLRIWVAVIRA-NH2)"
  % Biofilm inhibition [%]: 56
- Substance: "1018-L5: single substituted 1018 peptide (VRLILAVRIWRR-NH2) [Peptide 1018-L5]"
  % Biofilm inhibition [%]: 71
- Substance: "HH2-I9: single substituted HH2 peptide (VQLRIRVAIIRA-NH2)"
  % Biofilm inhibition [%]: 73
- Substance: "1002-I3: single substituted 1002 peptide (VQIWLIVWRIRK-NH2) [Peptide 1002-I3]"
  % Biofilm inhibition [%]: 62
- Substance: "HH2-I6: single substituted HH2 peptide (VQLRIIVAVIRA-NH2)"
  % Biofilm inhibition [%]: 45
- Substance: "HH2-I12: single substituted HH2 peptide (VQLRIRVAVIRI-NH2)"
  % Biofilm inhibition [%]: 65
- Substance: "1002-L8: single substituted 1002 peptide (VQRWLIVLRIRK-NH2) [Peptide 1002-L8]"
  % Biofilm inhibition [%]: 57

###

test system: LPS-stimulated human peripheral blood mononuclear cells (IL1-β); format: cell-based; details: Table 12; cells stimulated with 10 ng/ml LPS; LPS alone 1313 (HH2 derivatives), 1927 (1018 derivatives), 2455 (1002 and hybrid peptides) pg/ml
Ends that are not written are not given here.
# IL1β Production listing for each entry below

- Substance: "HH2-W9: single substituted HH2 peptide (VQLRIRVAWIRA-NH2)"
  Unit string: "pg/mL"
  IL1β Production: 1050
- Substance: "HH2-Q9: single substituted HH2 peptide (VQLRIRVAQIRA-NH2)"
  Unit string: "pg/mL"
  IL1β Production: 1321
- Substance: "1018-W9: single substituted 1018 peptide (VRLIVAVRWWRR-NH2) [Peptide 1018-W9]"
  Unit string: "pg/mL"
  IL1β Production: 127
- Substance: "HH2-I2: single substituted HH2 peptide (VILRIRVAVIRA-NH2)"
  Unit string: "pg/mL"
  IL1β Production: 1060
- Substance: "1002-K2: single substituted 1002 peptide (VKRWLIVWRIRK-NH2) [Peptide 1002-K2]"
  Unit string: "pg/mL"
  IL1β Production: 127
- Substance: "HH2-L4: single substituted HH2 peptide (VQLLIRVAVIRA-NH2)"
  Unit string: "pg/mL"
  IL1β Production: 800
- Substance: "1018-A11: single substituted 1018 peptide (VRLIVAVRIWAR-NH2) [Peptide 1018-A11]"
  Unit string: "pg/mL"
  IL1β Production: 1148
- Substance: "1002-L6: single substituted 1002 peptide (VQRWLLVWRIRK-NH2) [Peptide 1002-L6]"
  Unit string: "pg/mL"
  IL1β Production: 127
